Numbers sourced from ChEMBL document CHEMBL1129245.

system: Rattus norvegicus; test: Plasma concentration after 3 mg/kg peroral dosing in rat at 1 hr; assay type: ADME, organism-based; set-up: dose 3 mg/kg, route oral; conditions: in vivo, po
quantity-name: Concentration (ng/mL)
Express it in ng/mL; write the number only.

Could you share what Concentration was measured for `FC(F)(F)c1cc(CO[C@H]2CCCN(Cc3nnc[nH]3)[C@H]2c2ccccc2)cc(C(F)(F)F)c1` , tested on Rattus norvegicus?
33.7

====

assay: Plasma clearance after intravenous administration dosing (3 mg/kg) in Rhesus monkey
quantity-name: clearance (mL/min/kg)
Express it in mL/min/kg; write the number only.

Give the measured clearance of `O=c1[nH]nc(CN2CCC[C@H](OCc3cc(C(F)(F)F)cc(C(F)(F)F)c3)[C@@H]2c2ccccc2)[nH]1` .
2.4

====

test system: Rhesus monkey; assay: Plasma concentration after 3 mg/kg peroral dosing in Rhesus monkey at 6.0 hr; type: ADME, organism-based, Macaca mulatta; design: dose 3 mg/kg, route oral; settings: in vivo, po
quantity-name: Concentration (ng/mL)
Express it in ng/mL; write the number only.

Give the measured Concentration of `O=c1[nH]nc(CN2CCC[C@H](OCc3cc(C(F)(F)F)cc(C(F)(F)F)c3)[C@@H]2c2ccccc2)[nH]1` .
580

====

tested on: Rattus norvegicus; test: Plasma concentration of 3 mg/kg iv after 3h in rats; assay type: ADME, organism-based; design: dose 3 mg/kg, route intravenous; settings: in vivo
quantity-name: Concentration (ng/mL)
Express it in ng/mL; write the number only.

Give the measured Concentration of `O=c1[nH]nc(CN2CCC[C@H](OCc3cc(C(F)(F)F)cc(C(F)(F)F)c3)[C@@H]2c2ccccc2)[nH]1` .
52

====

assay: Plasma clearance after intravenous administration iv dosing of 3 mg/kg in rat; format: ADME, organism-based; set-up: dose 3 mg/kg, route intravenous
quantity-name: clearance (mL/min/kg)
Express it in mL/min/kg; write the number only.

Give the measured clearance of `FC(F)(F)c1cc(CO[C@H]2CCCN(Cc3nnc[nH]3)[C@H]2c2ccccc2)cc(C(F)(F)F)c1` .
44

====

tested on: Rattus norvegicus; experiment: Plasma concentration of 3 mg/kg iv after 0.083 hr in rats; conditions: in vivo
quantity-name: Concentration (ng/mL)
Express it in ng/mL; write the number only.

Give the measured Concentration of `O=c1[nH]nc(CN2CCC[C@H](OCc3cc(C(F)(F)F)cc(C(F)(F)F)c3)[C@@H]2c2ccccc2)[nH]1` .
599

====

system: Rattus norvegicus; experiment: Plasma concentration after 3 mg/kg peroral dosing in rat at 1.0 hr in rats; type: ADME, organism-based; design: dose 3 mg/kg, route oral; settings: in vivo, po
quantity-name: Concentration
# include the unit after the value

Give the measured Concentration of `O=c1[nH]nc(CN2CCC[C@H](OCc3cc(C(F)(F)F)cc(C(F)(F)F)c3)[C@@H]2c2ccccc2)[nH]1` .
45 ng/mL

====

system: Rattus norvegicus; experiment: Plasma concentration after 3 mg/kg peroral dosing in rat at 0.5 hr; assay type: ADME, organism-based; parameters: dose 3 mg/kg, route oral; conditions: in vivo, po
quantity-name: Concentration (ng/mL)
Express it in ng/mL; write the number only.

Give the measured Concentration of `FC(F)(F)c1cc(CO[C@H]2CCCN(Cc3nnc[nH]3)[C@H]2c2ccccc2)cc(C(F)(F)F)c1` .
35.1
